The following compounds are listed with their measured LC50 values.
# Tested on: SK-BR-3
# measurement-protocol: SRB colorimetric assay of cell growth and viability, SK-BR-3
# Assay type: cell-based, human
# setup-conditions: 48 hours exposure, SRB
Where a SMILES comes first, the peptide text is derived from it. Bridges are numbered along the chain shown (N, C = ends). [ ]: non-standard residue; d: D form. The star is where a group is joined. d(aIle) = CC[C@H](C)[C@@H](N)C(=O)O; d(aThr) = C[C@@H](O)[C@@H](N)C(=O)O; hCha = N[C@@H](CCC1CCCCC1)C(=O)O; Hexanoyl(5-Me) = CC(C)CCCC(=O)*; Orn = NCCC[C@H](N)C(=O)O; Dhb = C/C=C(\N)C(=O)O
# output: numeric value plus its unit

C/C=C1\NC(=O)[C@H](Cc2ccccc2)NC(=O)[C@@H](C(C)C)NC(=O)[C@@H]([C@@H](C)CC)NC(=O)[C@H](NC(=O)[C@H](NC(=O)[C@H](CCCN)NC(=O)[C@H]2CCCN2C(=O)[C@H](NC(=O)[C@@H](NC(=O)[C@@H](NC(=O)[C@H](NC(=O)CC[C@@H](C)[C@H]2CC[C@H]3[C@@H]4CC[C@@H]5C[C@H](OC(=O)C(F)(F)F)CC[C@]5(C)[C@H]4CC[C@]23C)C(C)C)[C@@H](C)OC(=O)C(F)(F)F)C(C)C)C(C)C)[C@@H](C)CC)[C@@H](C)OC(=O)[C@H](C(C)C)NC1=O :: 324 nM
C/C=C1\NC(=O)[C@H](CCC2CCCCC2)NC(=O)[C@@H](C(C)C)NC(=O)[C@@H]([C@@H](C)CC)NC(=O)[C@H](NC(=O)[C@H](NC(=O)[C@H](CCCN)NC(=O)[C@H]2CCCN2C(=O)[C@H](NC(=O)[C@@H](NC(=O)[C@@H](NC(=O)[C@H](NC(=O)CCCC(C)C)C(C)C)[C@@H](C)O)C(C)C)C(C)C)[C@@H](C)CC)[C@@H](C)OC(=O)[C@H](C(C)C)NC1=O [Compound 63] ({Hexanoyl(5-Me)}-[dV]TV[dV][dP][Orn][d(aIle)][d(aThr)][d(aIle)][dV][hCha][Dhb]V; ester 8-C) :: 465 nM
C/C=C1\NC(=O)[C@H](Cc2c[nH]c3ccccc23)NC(=O)[C@@H](C(C)C)NC(=O)[C@@H]([C@@H](C)CC)NC(=O)[C@H](NC(=O)[C@H](NC(=O)[C@H](CCCN)NC(=O)[C@H]2CCCN2C(=O)[C@H](NC(=O)[C@@H](NC(=O)[C@@H](NC(=O)[C@H](NC(=O)CCCC(C)C)C(C)C)[C@@H](C)O)C(C)C)C(C)C)[C@@H](C)CC)[C@@H](C)OC(=O)[C@H](C(C)C)NC1=O [Compound 68, [Trp^3]-KF] ({Hexanoyl(5-Me)}-[dV]TV[dV][dP][Orn][d(aIle)][d(aThr)][d(aIle)][dV]W[Dhb]V; ester 8-C) :: 655 nM
C/C=C1\NC(=O)[C@H](Cc2ccc(F)cc2)NC(=O)[C@@H](C(C)C)NC(=O)[C@@H]([C@@H](C)CC)NC(=O)[C@H](NC(=O)[C@H](NC(=O)[C@H](CCCN)NC(=O)[C@H]2CCCN2C(=O)[C@H](NC(=O)[C@@H](NC(=O)[C@@H](NC(=O)[C@H](NC(=O)CC[C@@H](C)CC)C(C)C)[C@@H](C)O)C(C)C)C(C)C)[C@@H](C)CC)[C@@H](C)OC(=O)[C@H](C(C)C)NC1=O [Compound 74, [Phe(4-F)^3, (4S)-MeHex^14]-KF] :: 495 nM

Entry C/C=C1\NC(=O)[C@H](Cc2ccccc2)N(C)C(=O)[C@@H](C(C)C)NC(=O)[C@@H]([C@@H](C)CC)NC(=O)[C@H](NC(=O)[C@H](NC(=O)[C@H](CCCN)NC(=O)[C@H]2CCCN2C(=O)[C@H](NC(=O)[C@@H](NC(=O)[C@@H](NC(=O)[C@H](NC(=O)CC[C@@H](C)CC)C(C)C)[C@@H](C)O)C(C)C)C(C)C)[C@@H](C)CC)[C@@H](C)OC(=O)[C@H](C(C)C)NC1=O [Compound 80, [NMePhe^3, (4S)-MeHex^14]-KF] under SK-BR-3 had LC50 of 1430 nM
